- assay.details: yeast display, Sf9 membrane polyspecificity reagent, FACS + sequencing; frameworks hold sequencing errors
assay.readout: polyreactivity (PSR sort gate)

QVQLVESGGGLVQAGGSLRLSCAASGFTFPYYAMGWYRQAPGKERELVAAISKSGGSTYYADSVKGRFTISRDYAKNTVYLQMNSLKPEDTAVYYCAADWYWWSYSDRHDYWGQGIQVTVSS ... high polyreactivity
QVQLVDSGGGLVQAGGSLRLSCAASGIIIKLYAMGWYRQAPGKEREFVATITKTGGRTYYADSVKGRFTISRDNAKNTVYLQMNSLKPEDTAVYYCAARRVNGKMYYWGQGTQVTVSS ... high polyreactivity
QVQLVESGGGLVQAGGSLRLSSAASGRTFRWYTMGWYRQAPGKERELVAAISYSGGRTYYADSVKGRFTISRDNAKNTVYLQMNSLKPEDTAVYYCNKRGPSYWRYVETSEYYYWGQGTQVTVSS ... high polyreactivity
QVQLVESGGGLVQAGGSLRLSCAASGSIFDPYAMGWYRQAPGKERELVAAITASASSTYYADSVKGRFTISRDNAKNTVYLQMYSLKPEDTAVYYCAADRANWEYLLSLLGYDYWGQGTQVTVSS ... low polyreactivity
QVQLVESGGGLVHAGGCLRLSFAASGFIFVVNPMGWYRPAPGKERELVAAINTSRGSTSYADSVKGRFTISRDNAKNTVYLQMNSVKPEDNAVYYCARDVWEKYRQSWGYVPLQGYDYCGQGTQVTVSS ... low polyreactivity
QVQLVESGGGLVQAGGSLRLSCAASGFDGYAMGWYRQAPGKERELVAASSWSGSRTYYADSVKGRFTISRDNAKNTVYLQMNSLKPEDTAVYYCNAVLRYSIYPSYSFSYVGYYYWGHGTQVTVSS ... high polyreactivity
QVQLVDSGGGLVQAGGSLRLSCAASGFIFSSYAMVWYRQAPGKERELVAAISRSGGYTYYADSVKGRFTISRDNAKNTVYFQMNSLNAEDTAVYYCATRSYMPGVRRGYDYWGKGTQVTVSS ... high polyreactivity
QVQLVESGVGLVQAGGSLRLSCAASGITFTGYAMGWYRQAPGKERELVAVISETGGSTYADSVKGRFTISRDNAKNTVYLQMNSLKPEDTAVYYCATRLWWPYSTAWAKMDYWGQGTQVTVSS ... low polyreactivity
QVQLVESGGGLVQAGGSLRLSCAASGSTFDYYAMGWYRQAPGKERELVAAITSTGRTYYADSVKGRFTISRDNAKNTVYLQMNSLKPEDTAVYYCAADLPWGPLFDYWGQGTQVTVSS ... low polyreactivity
QVQLVESGGGLVQAGGSLRLSCDASGRSFYPYSMGWYRQAPGKERELVAAIDWSDGSTYYADSVKGRFTISRDNAKNTFYLQMNSLKPEDTAVYYCSAEDYNYWSYDYWGQGTQVTVSS ... low polyreactivity

stdin: Would you kindly share the measured polyreactivity (PSR sort gate) for `QVQLVESGGGLVQAGGSLRLSCAASGRTFASNAMGWYRQAPGKERELVAAISVTGGRTYYADSVKGRFTISRDNAKNTVYLQMNRLKPEDTAVYYCAKDLTLFSGPFPEFGYWGQGTQVTVSS` ?
stdout: low polyreactivity

---

- assay.details: yeast display, Sf9 membrane polyspecificity reagent, FACS + sequencing; frameworks hold sequencing errors
assay.readout: polyreactivity (PSR sort gate)

Solved cases below.
QVQLVESGGGLVQAGGSLRLSCAASGSTFVGYAMGWYRQAPGKERELVADIDSIGGSTYYADSVKGRFTISRDNAKNTVYVQMNSLKPEDTAVYYCAARRFDTALVLYDYWGQGTQVTVSS ... low polyreactivity
QVQLVESGGGLVQAGGSLRLSCAASGRTFGGNAMGWYRQAPGKERELVAAISLSGGTTYYADSVKGRFTISRDNAKNTVYLQMHSLKPEDTAVYYCAARFKSVDYVQYYYWGQGTQVTVSS ... low polyreactivity
QVQLVESGGGLVQAGGSLRLSCAASGRIFKNNAMGWYRQAPGKERELVAGISRSGGRTYYADSVKGRFTISRDNAKNTVYLQMNSLKPEDTAVYYCNAYAYYSHGVTTTYDYWGQGTQVTVSS ... high polyreactivity
QVQLVESGGGLVQAGGSLRLSCAASGFIYYGYAMGWYRQAPGKEMELVAAITSGGSTTYADSVKGRFTISRDNAKNTVYLQMNSLKPVDTAVYYGAASVCREVGWGQGTQVTVSS ... high polyreactivity

stdin: Would you kindly share the measured polyreactivity (PSR sort gate) for `QVQLVESGGGLVQAGGSLRLSCATSGFIFSLYAMGWYRQAPGKERELVAAINWNGGRTYYADSVKGRFTISRDNAKNTVYLQMDSLKPEDTAVYYCATRSGSYSYPAVGGWGLGYWGQGTQVTVSS` ?
stdout: high polyreactivity
